These data points were gathered from patent US20220363736A1.

Assignment: determine reported Kd for the given binders.
assayedSystem: recombinant neuraminidase (rNA) from B/Malaysia/2506/04 (influenza B virus B/Malaysia/2506/04)
Enter your answer as a number in nM; do not include the unit.

Task: Kd lookup needed for recombinantly expressed 1F2 IgG2b (antibody, V domains shown) VH: QVHLQQSGPEVARPGASVKLSCKASGYTFTDYYLNWVKQRPRQGLEWIGQIHPGSTNTYYNEKFKGKATLTADKSSSTAYMQLSSLTFEDSAVYFCAISLGDGYYVYAMVCWGQGTAVTVSS VL: DIVMTQSQKFMSTSVGDRVSVTCKASQNVVTNVVWYQQKPGQSPKPLIYSASYRYSGVPDRFTGSGSGTDFTLTISNVQSEDLAEYCCQQYHSYPFTFGSGTKLEVK , thanks.
Output: 1.16

Task: Also need recombinantly expressed 1F2 IgM (antibody, V domains shown) VH: QVHLQQSGPEVARPGASVKLSCKASGYTFTDYYLNWVKQRPRQGLEWIGQIHPGSTNTYYNEKFKGKATLTADKSSSTAYMQLSSLTFEDSAVYFCAISLGDGYYVYAMVCWGQGTAVTVSS VL: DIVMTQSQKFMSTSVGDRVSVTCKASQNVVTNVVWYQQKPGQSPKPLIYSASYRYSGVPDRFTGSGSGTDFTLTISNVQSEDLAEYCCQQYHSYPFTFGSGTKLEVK , thanks.
Output: 0.65
